Source: patent US20240269276A1

- System: T1, human PD-L1 on CHO-K1 cells overexpressing human PD-L1 (human, UniProt Q9NZQ7 19-290)
- T1 construct: whole, on cells; also called CHO-K1/hPD-L1; CHO-K1-hPD-L1
- T1 sequence (Q9NZQ7 19-290): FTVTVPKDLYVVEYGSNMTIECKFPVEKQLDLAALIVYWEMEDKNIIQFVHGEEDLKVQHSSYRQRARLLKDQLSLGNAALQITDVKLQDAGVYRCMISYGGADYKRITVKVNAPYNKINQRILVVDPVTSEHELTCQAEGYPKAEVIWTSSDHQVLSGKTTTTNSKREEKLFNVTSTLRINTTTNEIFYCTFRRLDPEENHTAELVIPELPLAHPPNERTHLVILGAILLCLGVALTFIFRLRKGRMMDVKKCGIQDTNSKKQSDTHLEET
- Measurement Notes: flow cytometry on CHO-K1 cells overexpressing human PD-L1 (CHO-K1/hPD-L1) [continued) E]
Observation Type: Maximum MFI

- Binder: "PR005869 (antibody, human IgG1, V domains shown, The HC entry is used) VH: QVQLVESGGGVVQPGMSLRLSCAASGFTFSSYGMYWVRQAPGKGQEWVAIIWYDGTKKHYADSVKGRFTISRDNSKNTLYLEMNSLRVEDTAVYYCAKNRALFGVIPDDSDIRGQGTMVTVSS"
  Observation Type: "Maximum MFI"
  Observed Value: "393000 MFI"
- Binder: "PR005867 (antibody, human IgG1, V domains shown, The HC entry is used) VH: QVQLVESGGGVVQPGMSLRLSCAASGFTFSSYGMYWVRQAPGKGQEWVAIIWYDGTKKHYADSVKGRFTISRDNSKNTLYLEMNSLRVEDTAVYYCAKNRAIFGVIPDDSDIRGQGTMVTVSS"
  Observation Type: "Maximum MFI"
  Observed Value: "388000 MFI"
- Binder: "PR005868 (antibody, human IgG1, V domains shown, The HC entry is used) VH: QVQLVESGGGVVQPGMSLRLSCAASGFTFSSYGMYWVRQAPGKGQEWVAIIWYDGTKKHYADSVKGRFTISRDNSKNTLYLEMNSLRVEDTAVYYCAKNRALFGVIPDASDIRGQGTMVTVSS"
  Observation Type: "Maximum MFI"
  Observed Value: "393000 MFI"
